- TGT: T1, cynomolgus CD3 on HSC-F cells (cynomolgus, UniProt Q95LI5 22-198)
- T1 construct: whole, on cells; also called Cyno HSC-F; cynomolgus HSC-F cells
- PROTOCOL NOTES: flow cytometry, yeast-produced IgG 100 nM on HSC-F cells, pH 6.0

{"BINDER": "ADI-79846 (Antibody No. 12), human IgG1 (antibody, V domains shown, Tested as yeast-produced aglycosylated human IgG1) VH: QVQLVQSGAEVKKPGASVKVSCKASGFNIKDYYMHWVRQAPGQRLEWMGWIDLENANTIYDAKFQGRVTITRDTSASTAYMGLSSLRSEDTAVYYCARDHYGRYFYDVWGQGTLVTVSS VL: DIVMTQSPDSLAVSLGERATINCKSSQSLLNARTGHNYLAWYQQKPGQPPKLLIYWASTRESGVPDRFSGSGSGTDFTLTISSLQAEDVAVYYCKQSHSHRTFGGGTKVEIK", "NCB": 235}
